- assayed-target: human M2 receptor (Homo sapiens, UniProt P08172)
- Sequence (P08172 whole entry): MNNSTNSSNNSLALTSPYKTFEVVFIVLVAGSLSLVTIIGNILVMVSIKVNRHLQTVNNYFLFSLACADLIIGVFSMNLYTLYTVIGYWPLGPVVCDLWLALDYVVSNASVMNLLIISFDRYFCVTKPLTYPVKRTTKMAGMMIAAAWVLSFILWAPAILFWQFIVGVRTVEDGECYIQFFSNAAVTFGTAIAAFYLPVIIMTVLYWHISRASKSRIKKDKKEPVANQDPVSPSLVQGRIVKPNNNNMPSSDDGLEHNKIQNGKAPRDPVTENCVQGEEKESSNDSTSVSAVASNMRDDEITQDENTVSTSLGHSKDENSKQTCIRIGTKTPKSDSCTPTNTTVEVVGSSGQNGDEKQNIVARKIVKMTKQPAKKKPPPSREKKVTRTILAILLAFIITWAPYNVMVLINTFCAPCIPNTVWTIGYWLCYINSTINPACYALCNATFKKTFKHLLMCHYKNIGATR
- measurement-parameters: Receptor activity EC50, M2-GIRK1/4 activation test, acetylcholine at EC20; allosteric potency; in some cases mean values from two or more determinations
quantity-kind: EC50 (nM)

molecule	EC50 (nM)
CN(C)c1ccc2c(=O)c(C(=O)NCc3ccccc3C(F)(F)F)cn(-c3ccc(F)cc3F)c2n1 [Example 59]	94

A: O=C(NC(c1c(F)cccc1F)C(F)(F)F)c1cn(-c2ccc(F)cc2F)c2nc(N3CCC(O)CC3=O)ccc2c1=O (single isomer, unassigned) [Example 256]
B: CC[C@@H](NC(=O)c1cn(-c2ccc(F)cc2F)c2nc(N3CCC(O)(O)C(F)(F)C3)ccc2c1=O)C(F)(F)F [Example 35]
Would you kindly point out which of A and B has the smaller EC50 figure? When you have decided, please share the label of that item.
B
